- Tested on: ATP;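 note: ATP exposure 15 min at 22 °C before imaging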
- procedureText: switch fluorescence ratio, 500 uM ATP over buffer (Cy3 cluster intensity, sum of 5 cycles each) (fold (ratio)); higher = stronger signal-on switching upon ATP binding; sequences stand for … in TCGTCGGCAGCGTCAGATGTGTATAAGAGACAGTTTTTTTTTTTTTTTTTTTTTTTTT…TC
- measurementParameters: aptamer strand: ATP DNA aptamer (quencher-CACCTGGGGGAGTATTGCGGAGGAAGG + anchor), 100 nM annealed; ATP concentration: 500 uM
sequences and their reported switch fluorescence ratio
Give only the figure.

AACATTTAGC
1.01
TTACGGGGAG
1
GTTGGGGCTC
1.01
AGTTTAGAAT
1

Give the reported switch fluorescence ratio for this sequence. `GTCGGTTGGA`
0.977

---

sequences and their reported switch fluorescence ratio
- Test system: ATP;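 note: ATP exposure 15 min at 22 °C before imaging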
- procedureText: switch fluorescence ratio, 500 uM ATP over buffer (Cy3 cluster intensity, sum of 5 cycles each) (fold (ratio)); higher = stronger signal-on switching upon ATP binding; sequences stand for … in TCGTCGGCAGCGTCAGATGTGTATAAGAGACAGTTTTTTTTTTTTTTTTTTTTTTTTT…TC
- measurementParameters: aptamer strand: ATP DNA aptamer (quencher-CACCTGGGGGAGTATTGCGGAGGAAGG + anchor), 100 nM annealed; ATP concentration: 500 uM
Give only the figure.

Consider the worked cases shown below.
GCTGGCCGGT
0.989
ACTGGTTTAG
0.997
CGGGGGCTCG
0.989
AATGGGGTGT
0.987
CAAGGGGGGA
1.01
TCATTTACAT
1.04

Give the reported switch fluorescence ratio for this sequence. `GACTAAAGTG`
1.01

Give the reported switch fluorescence ratio for this sequence. `CGGCCTGTGC`
1.03

Give the reported switch fluorescence ratio for this sequence. `AAAAGGGTGA`
1.02

Give the reported switch fluorescence ratio for this sequence. `CATTTTAATA`
1.01

---

- Test system: ATP;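 note: ATP exposure 15 min at 22 °C before imaging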
- procedureText: switch fluorescence ratio, 500 uM ATP over buffer (Cy3 cluster intensity, sum of 5 cycles each) (fold (ratio)); higher = stronger signal-on switching upon ATP binding; sequences stand for … in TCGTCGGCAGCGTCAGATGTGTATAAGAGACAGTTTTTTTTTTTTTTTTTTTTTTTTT…TC
- measurementParameters: aptamer strand: ATP DNA aptamer (quencher-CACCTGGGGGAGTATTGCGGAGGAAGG + anchor), 100 nM annealed; ATP concentration: 500 uM
observationType: switch fluorescence ratio
Give only the figure.

CCTTGGCGCG
0.995

Give the reported switch fluorescence ratio for this sequence. `CCTAAATGGG`
1.01

Give the reported switch fluorescence ratio for this sequence. `TATATGAGAC`
1

Give the reported switch fluorescence ratio for this sequence. `GATGAAGGTT`
0.992

Give the reported switch fluorescence ratio for this sequence. `TATAATTCTA`
0.984

---

sequences and their reported switch fluorescence ratio
- Test system: ATP;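 note: ATP exposure 15 min at 22 °C before imaging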
- procedureText: switch fluorescence ratio, 500 uM ATP over buffer (Cy3 cluster intensity, sum of 5 cycles each) (fold (ratio)); higher = stronger signal-on switching upon ATP binding; sequences stand for … in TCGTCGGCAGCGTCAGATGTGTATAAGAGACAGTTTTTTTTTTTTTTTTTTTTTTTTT…TC
- measurementParameters: aptamer strand: ATP DNA aptamer (quencher-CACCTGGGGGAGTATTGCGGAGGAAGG + anchor), 100 nM annealed; ATP concentration: 500 uM
Give only the figure.

CGTCAGCGAA
1.18
TAACACGGGA
1.04
GGTTAAAAGG
1

Give the reported switch fluorescence ratio for this sequence. `GGGGACTTAT`
1.02

Give the reported switch fluorescence ratio for this sequence. `CCTGCAAACA`
2.22

Give the reported switch fluorescence ratio for this sequence. `TATGGGATTA`
1.04

---

sequences and their reported switch fluorescence ratio
- Test system: ATP;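 note: ATP exposure 15 min at 22 °C before imaging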
- procedureText: switch fluorescence ratio, 500 uM ATP over buffer (Cy3 cluster intensity, sum of 5 cycles each) (fold (ratio)); higher = stronger signal-on switching upon ATP binding; sequences stand for … in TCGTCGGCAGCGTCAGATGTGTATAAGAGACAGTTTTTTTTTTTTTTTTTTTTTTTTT…TC
- measurementParameters: aptamer strand: ATP DNA aptamer (quencher-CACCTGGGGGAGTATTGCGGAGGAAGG + anchor), 100 nM annealed; ATP concentration: 500 uM
Give only the figure.

Give the reported switch fluorescence ratio for this sequence. `CCGGTTCATT`
1.04

Give the reported switch fluorescence ratio for this sequence. `TTTAAAAATA`
0.997

Give the reported switch fluorescence ratio for this sequence. `TCGGCTATGA`
1.03
